Values from the RNAGym collection of RNA variant scans (doi:10.1093/nar/gkz1192)

B1: CPEB3 Ribozyme (parent)
chain: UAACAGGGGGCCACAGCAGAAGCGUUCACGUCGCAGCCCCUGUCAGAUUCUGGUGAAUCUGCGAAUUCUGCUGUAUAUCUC

variants of: B1; test: self-cleavage, relative activity (ratio to wild type); higher = more cleavage; in vitro, sequencing
Recorded metric: self-cleavage
Response field accepts a number only; no unit should be typed.

[in] Form field: reported self-cleavage of A45U
[out] 0.51

[in] Next: G6A C23A
[out] 0.1

[in] Next: A20G U43G
[out] 0.44

[in] Next: A28G U60G
[out] 0.16

[in] Next: A5G C34G
[out] 0.52

[in] Next: A21G C59A
[out] 0.31

[in] Next: C17U U72C
[out] 0.74

[in] Next: U1G G63U
[out] 0.81

[in] Next: C4U A20G
[out] 0.81

[in] Next: A45G C79A
[out] 1.13

[in] Next: G42A C79U
[out] 0.36

[in] Next: G10U A15G
[out] 0.18

[in] Next: U58A U74A
[out] 0.6

[in] Next: U66A U67A
[out] 0.26

[in] Next: U25C U60G
[out] 0.13

[in] Next: C29G A75G
[out] 0.21

[in] Next: A18G G22A
[out] 0.24

[in] Next: A20U U74C
[out] 0.33

[in] Next: A47U A75U
[out] 1

[in] Next: A35U C44U
[out] 0.16

[in] Next: C38U A65G
[out] 0.32

[in] Next: A18C A65U
[out] 0.16

[in] Next: G63U U74G
[out] 1.21

[in] Next: C38U A57U
[out] 0.39

[in] Next: U60A U78A
[out] 0.72

[in] Next: A18G A56C
[out] 0.25

[in] Next: A20C U66G
[out] 0.45

[in] Next: G7C A75U
[out] 0.31

[in] Next: A21C U78C
[out] 0.37

[in] Next: C38A U66C
[out] 0.15

[in] Next: A15G A64C
[out] 0.25

[in] Next: G6A C32A
[out] 0.26

[in] Next: U43G U69C
[out] 0.35

[in] Next: A2U G10A
[out] 0.26

[in] Next: A18U U48A
[out] 0.19

[in] Next: G24A A45U
[out] 0.25

[in] Next: C11U G61C
[out] 0.11

[in] Next: U51G U60A
[out] 0.78

[in] Next: G7C U25A
[out] 0.27

[in] Next: C32A U58A
[out] 0.37

[in] Next: G46U A64G
[out] 0.16

[in] Next: C11U U43A
[out] 0.68

[in] Next: A28U U41A
[out] 0.26

[in] Next: G24A G42A
[out] 0.12

[in] Next: G10A C39A
[out] 0.37

[in] Next: A56U G61A
[out] 0.29
